# assay_protocol: Lyophilisation solubility assay (LYSA)
# Type: physicochemical
# cond: phosphate buffer, pH 6.5, aqueous buffer, thermodynamic from solid, 0.05 M phosphate buffer, HPLC-UV
recorded_metric: log10 solubility thermodynamic (log10 of the value in µg/mL)
Hey, these are logged values: log10 of solubility thermodynamic, µg/mL being the unit before logging.

Sure, the documented log10 solubility thermodynamic for CNc1cc(F)c(F)c2c1[nH]c1ncc(-c3cnc4c(c3)c(=O)c(C(=O)O)cn4C)c(N3CCC4(CCN4C)C3)c12 (stereo not shown) [Example 1.237] is 2.16

Sure, the documented log10 solubility thermodynamic for CNc1cc(F)c(F)c2c1[nH]c1ncc(-c3cnc4c(c3)c(=O)c(C(=O)O)cn4C)c(N3CC[C@H]4CN(C)CC43)c12 (stereo partly shown) [Example 1.85] is 2.00

Sure, the documented log10 solubility thermodynamic for CNc1cc(F)c(F)c2c1[nH]c1ncc(-c3cnc4c(c3)c(=O)c(C(=O)O)cn4C)c(N3CC4CCCN(C)C4C3)c12 (stereo not shown) [Example 1.232] is 1.36

Sure, the documented log10 solubility thermodynamic for CNc1cc(F)c(F)c2c1[nH]c1ncc(-c3cnc4c(c3)c(=O)c(C(=O)O)cn4C)c(N3CCCC(N(C)CCOC)C3)c12 (stereo not shown) [Example 1.197] is 2.61

Sure, the documented log10 solubility thermodynamic for CNc1cc(F)cc2c1[nH]c1ncc(-c3cnc4c(c3)c(=O)c(C(=O)O)cn4C)c(N3CC[C@@H]4C(CCN4C)C3)c12 (stereo partly shown) [Example 1.188] is 1.30

Sure, the documented log10 solubility thermodynamic for CNc1cc(F)c(F)c2c1[nH]c1ncc(-c3cnc4c(c3)c(=O)c(C(=O)O)cn4C)c(N3CC[C@@H]4C3CCN4C)c12 (stereo partly shown) [Example 1.245] is 2.73

Sure, the documented log10 solubility thermodynamic for CNc1cc(F)cc2c1[nH]c1ncc(-c3cnc4c(c3)c(=O)c(C(=O)O)cn4C)c(N3CCO[C@@H](CN(C)C)C3)c12 [Example 3.02A] is 2.68

Sure, the documented log10 solubility thermodynamic for CNc1cc(F)c(F)c2c1[nH]c1ncc(-c3cnc4c(c3)c(=O)c(C(=O)O)cn4NC)c(N3CCC4C3CCCN4C)c12 (stereo not shown) [Example 1.247] is 2.71

Sure, the documented log10 solubility thermodynamic for CNc1cc(F)c(F)c2c1[nH]c1ncc(-c3cnc4c(c3)c(=O)c(C(=O)O)cn4C)c(N3CC4[C@H](CC[C@H]4N(C)C)C3)c12 (stereo partly shown) [Example 1.221] is 1.69

Sure, the documented log10 solubility thermodynamic for CNc1cc(F)cc2c1[nH]c1ncc(-c3cnc4c(c3)c(=O)c(C(=O)O)cn4C3CCNC3)c(N3CCCC3)c12 (stereo not shown) [Example 1.259] is 1.23

Sure, the documented log10 solubility thermodynamic for CNc1cc(F)c(F)c2c1[nH]c1ncc(-c3cnc4c(c3)c(=O)c(C(=O)O)cn4C)c(N3C[C@@H](F)C[C@H]3CN(C)C)c12 [Example 7.01] is 2.52

Sure, the documented log10 solubility thermodynamic for CNc1cc(F)c(C#N)c2c1[nH]c1ncc(-c3cnc4c(c3)c(=O)c(C(=O)O)cn4C)c(N3CC[C@H]4CN(C)CC43)c12 (stereo partly shown) [Example 1.274] is 2.07

* * *

# assay_protocol: Lyophilisation solubility assay (LYSA)
# Assay type: physicochemical
# cond: phosphate buffer, pH 6.5, aqueous buffer, thermodynamic from solid, 0.05 M phosphate buffer, HPLC-UV
recorded_metric: log10(solubility thermodynamic) (log10 of the value in µg/mL)
Hey, these are logged values: log10 of solubility thermodynamic, µg/mL being the unit before logging.

Sure, the documented log10(solubility thermodynamic) for CNc1cc(F)c(F)c2c1[nH]c1ncc(-c3cnc4c(c3)c(=O)c(C(=O)O)cn4NC)c(N3C[C@H]4CCN(C)[C@H]4C3)c12 [Example 3.07A] is 1.30

Sure, the documented log10(solubility thermodynamic) for CNc1cc(F)cc2c1[nH]c1ncc(-c3cnc4c(c3)c(=O)c(C(=O)O)cn4C)c(N3CC[C@H]4CCN(C)C4C3)c12 (stereo partly drawn) is 2.31

Sure, the documented log10(solubility thermodynamic) for CNc1cc(F)c(F)c2c1[nH]c1ncc(-c3cnc4c(c3)c(=O)c(C(=O)O)cn4C)c(N3CC[C@H](CN(C)C)C3)c12 is 2.31

Sure, the documented log10(solubility thermodynamic) for CCN1CCCC1Cn1cc(C(=O)O)c(=O)c2cc(-c3cnc4[nH]c5c(NC)cc(F)c(F)c5c4c3N(C)C)cnc21 (stereo not drawn) is 1.51

Sure, the documented log10(solubility thermodynamic) for CNc1cc(F)c(F)c2c1[nH]c1ncc(-c3cnc4c(c3)c(=O)c(C(=O)O)cn4C)c(N3CC[C@@H]4C3CN4C)c12 (stereo partly drawn) is 2.35

Sure, the documented log10(solubility thermodynamic) for CNc1cc(F)c(F)c2c1[nH]c1ncc(-c3cnc4c(c3)c(=O)c(C(=O)O)cn4NC)c(N3C[C@@H](O)[C@@H](N(C)C)C3)c12 is 2.76

* * *

# Test system: K. pneumoniae (ATCC10031)
# assay_protocol: 50% growth inhibitory concentration (IC50) determination assay
# Assay type: cell-based
# cond: Klebsiella pneumoniae, Iso-Sensitest broth, 0.098 = detection limit
recorded_metric: IC50

Sure, the documented IC50 for CNc1cc(F)cc2c1[nH]c1ncc(-c3cnc4c(c3)c(=O)c(C(=O)O)cn4CC(C)O)c(N3CCOCC3)c12 (stereo not drawn) [Example 1.53] is < 0.098 µM

Sure, the documented IC50 for CCn1cc(C(=O)O)c(=O)c2cc(-c3cnc4[nH]c5c(NC)cc(F)cc5c4c3N3CC[C@H]4CN(C)CC43)cnc21 (stereo partly drawn) [Example 1.289] is < 0.098 µM

Sure, the documented IC50 for CNc1cc(F)c(F)c2c1[nH]c1ncc(-c3cnc4c(c3)c(=O)c(C(=O)O)cn4C)c(N3CC[C@H]4CN(C)CC43)c12 (stereo partly drawn) [Example 1.85] is < 0.098 µM

Sure, the documented IC50 for CNc1cc(F)c(F)c2c1[nH]c1ncc(-c3cnc4c(c3)c(=O)c(C(=O)O)cn4NC)c(N3CCCC(CN(C)C)C3)c12 (stereo not drawn) [Example 1.186] is < 0.098 µM

Sure, the documented IC50 for CNc1cc(F)c(F)c2c1[nH]c1ncc(-c3cnc4c(c3)c(=O)c(C(=O)O)cn4C)c(N3C[C@H]4OCCN(C)[C@H]4C3)c12 [Example 3.14A] is < 0.098 µM

Sure, the documented IC50 for CNc1cc(F)c(F)c2c1[nH]c1ncc(-c3cnc4c(c3)c(=O)c(C(=O)O)cn4C)c(N3CCC(N4CCCC4)CC3)c12 [Example 1.203] is < 0.098 µM

* * *

# assay_protocol: Lyophilisation solubility assay (LYSA)
# Assay type: physicochemical
# cond: phosphate buffer, pH 6.5, aqueous buffer, thermodynamic from solid, 0.05 M phosphate buffer, HPLC-UV
I'd appreciate it if you could supply solubility thermodynamic values for the items below.
Answer with a number only, understood to be in µg/mL.

Sure, the documented solubility thermodynamic for CNc1cc(F)c(F)c2c1[nH]c1ncc(-c3cnc4c(c3)c(=O)c(C(=O)O)cn4NCCOC)c(N3CC[C@H]4CN(C)C[C@H]43)c12 (relative stereo) is 425

Sure, the documented solubility thermodynamic for CCNn1cc(C(=O)O)c(=O)c2cc(-c3cnc4[nH]c5c(NC)cc(F)c(F)c5c4c3N3CC[C@@H](N(C)C)C3)cnc21 is 17

Sure, the documented solubility thermodynamic for CNc1cc(F)c(F)c2c1[nH]c1ncc(-c3cnc4c(c3)c(=O)c(C(=O)O)cn4C)c(N3CC4[C@H](CCN4C)C3)c12 (stereo partly drawn) is 58

Sure, the documented solubility thermodynamic for CNc1cc(F)cc2c1[nH]c1ncc(-c3cnc4c(c3)c(=O)c(C(=O)O)cn4C)c(N3C[C@H](OC)[C@@H](N(C)C)C3)c12 is 46

Sure, the documented solubility thermodynamic for CNc1cc(F)cc2c1[nH]c1ncc(-c3cnc4c(c3)c(=O)c(C(=O)O)cn4NC)c(N3C[C@H]4OCCN(C)[C@H]4C3)c12 [Example 3.23A] is 49

Sure, the documented solubility thermodynamic for CNc1cc(F)c(F)c2c1[nH]c1ncc(-c3cnc4c(c3)c(=O)c(C(=O)O)cn4NC)c(N3CCC(F)(CN(C)C)C3)c12 (stereo not drawn) is 105

Sure, the documented solubility thermodynamic for CNc1cc(F)c(F)c2c1[nH]c1ncc(-c3cnc4c(c3)c(=O)c(C(=O)O)cn4C)c(N3CCC(CN(C)C)C3)c12 (stereo not drawn) is 266

Sure, the documented solubility thermodynamic for CNc1cc(F)c(F)c2c1[nH]c1ncc(-c3cnc4c(c3)c(=O)c(C(=O)O)cn4C)c(N3CC[C@H]4CN(CCOC)CC43)c12 (stereo partly drawn) is 169

Sure, the documented solubility thermodynamic for CNc1cc(F)cc2c1[nH]c1ncc(-c3cnc4c(c3)c(=O)c(C(=O)O)cn4C)c(N3CC[C@H](N(C)C)C3)c12 is 209

Sure, the documented solubility thermodynamic for CNc1cc(F)c(F)c2c1[nH]c1ncc(-c3cnc4c(c3)c(=O)c(C(=O)O)cn4C)c(N3CC[C@H](N(C)C)C3)c12 is 23

Sure, the documented solubility thermodynamic for CNc1cc(F)cc2c1[nH]c1ncc(-c3cnc4c(c3)c(=O)c(C(=O)O)cn4C)c(N3CC[C@@H]4CCN(C)[C@@H]4C3)c12 [Example 3.18B] is 338

Sure, the documented solubility thermodynamic for CNc1cc(F)cc2c1[nH]c1ncc(-c3cnc4c(c3)c(=O)c(C(=O)O)cn4C)c(N3CCC(N(C)C)C3)c12 (stereo not drawn) is 152
